Reference source: patent US11446299B2

In this section we review reported activity at 10 µM values for a set of molecules.
# Tested on: MDA-MB-231 breast cancer cells
# measurementDescription: Wound healing assay (scratch method), cell migration
# Type: cell-based, human
# conditionLabel: Homo sapiens; percent relative migration at 10 μM after 24 h, relative to control, MDA-MB-231
Your answer should be a number followed by the unit of measure.

# molecule, target, measured
measured = [
    ("CCn1c2ccccc2c2cc(C(=O)Nc3cccnc3N3CCOCC3)ccc21 [Compound 11b]", "MDA-MB-231 breast cancer cells", "66%"),
    ("CCn1c2ccccc2c2cc(NC(=O)c3cccnc3N3CCN(C(C)=O)CC3)ccc21 [Compound 3a]", "MDA-MB-231 breast cancer cells", "93%"),
    ("CCn1c2ccccc2c2cc(C(=O)Nc3cccnc3NCCCN3CCOCC3)ccc21 [Compound 11a]", "MDA-MB-231 breast cancer cells", "89%"),
]

Return activity at 10 µM (reported value) for this molecule: CCn1c2ccccc2c2cc(NC(=O)c3ccccc3C(=O)NCCOC)ccc21 [Compound 14e] 99%

Report activity at 10 µM, nothing else, for this molecule: CCn1c2ccccc2c2cc(NC(=O)c3nccnc3C(=O)NCCCn3ccnc3)ccc21 [Compound 14c] 99%

Determine from records and report activity at 10 µM for CCn1c2ccccc2c2cc(NC(=O)c3nccnc3C(=O)NCCOC)ccc21 [Compound 14d] 100%

Give activity at 10 µM for the following molecule: CCN(CC)CCCC(C)NC(=O)c1cccnc1Nc1ccc2c(c1)c1ccccc1n2CC (stereo not shown) [Compound 4d] 91%

Given CCn1c2ccccc2c2cc(NC(=O)c3nccnc3C(=O)NCCCN3CCOCC3)ccc21 [Compound 14b] , respond with its activity at 10 µM. 94%

Answer with the recorded activity at 10 µM of CCn1c2ccccc2c2cc(NC(=O)c3ccccc3C(=O)NCCO)ccc21 [Compound 14f] only. 98%

Provide measured activity at 10 µM value, entry: CCn1c2ccccc2c2cc(Nc3ncccc3C(=O)NCCCn3ccnc3)ccc21 [Compound 4c] 93%
